target: UniProt:P00918; test: stopped flow CO2 hydrase assay, hCA II inhibition
READOUT: Ki (nM)

Previously resolved entries follow.
COc1ccccc1NC(=O)NNC(=O)C1CCN(C(=O)c2ccc(S(N)(=O)=O)cc2)CC1 [Compound 5o] : 185
NS(=O)(=O)c1ccc(C(=O)N2CCC(C(=O)NNC(=S)Nc3ccc(Cl)c(Cl)c3)CC2)cc1 [Compound 6g] : 22.4
NS(=O)(=O)c1ccc(C(=O)N2CCC(C(=O)NNC(=S)Nc3c(F)cccc3F)CC2)cc1 [Compound 6q] : 28.2
NS(=O)(=O)c1ccc(C(=O)N2CCC(C(=O)NNC(=S)Nc3ccc(Cl)cc3)CC2)cc1 [Compound 6f] : 41.6

(A) COc1cccc(NC(=S)NNC(=O)C2CCN(C(=O)c3ccc(S(N)(=O)=O)cc3)CC2)c1 [Compound 6k]
(B) NS(=O)(=O)c1ccc(C(=O)N2CCC(C(=O)NNC(=O)Nc3c(Cl)cccc3Cl)CC2)cc1 [Compound 5e]
(C) Cc1ccccc1NC(=O)NNC(=O)C1CCN(C(=O)c2ccc(S(N)(=O)=O)cc2)CC1 [Compound 5j]
Please produce an ascending ranking of these compounds based on Ki. Please reply with the labels ordered as requested. Many thanks. A, C, B

###

target: UniProt P00918; experiment: stopped flow CO2 hydrase assay, hCA II inhibition
pKi: −log10 of the molar value.
READOUT: pKi

Below are worked cases with known answers.
NS(=O)(=O)c1ccc(C(=O)N2CCC(C(=O)NNC(=O)Nc3ccccc3)CC2)cc1 : 7.53
NS(=O)(=O)c1ccc(C(=O)N2CCC(C(=O)NNC(=S)Nc3c(Cl)cccc3Cl)CC2)cc1 : 7.67

(P) NS(=O)(=O)c1ccc(C(=O)N2CCC(C(=O)NNC(=S)Nc3ccccc3)CC2)cc1
(Q) NS(=O)(=O)c1ccc(C(=O)N2CCC(C(=O)NNC(=O)Nc3ccccc3Cl)CC2)cc1
(R) NS(=O)(=O)c1ccc(C(=O)N2CCC(C(=O)NNC(=S)Nc3cccc(F)c3)CC2)cc1
(S) Cc1cccc(C)c1NC(=O)NNC(=O)C1CCN(C(=O)c2ccc(S(N)(=O)=O)cc2)CC1
(T) NS(=O)(=O)c1ccc(C(=O)N2CCC(C(=O)NNC(=O)Nc3c(F)cccc3F)CC2)cc1
Order the items by recorded pKi; the first position goes to the largest value. Submit the labels in the order that the ranking request calls for. T, Q, P, S, R

(a) COc1ccc(CNC(=S)NNC(=O)C2CCN(C(=O)c3ccc(S(N)(=O)=O)cc3)CC2)cc1
(b) COc1ccccc1NC(=S)NNC(=O)C1CCN(C(=O)c2ccc(S(N)(=O)=O)cc2)CC1
Quick one: lower pKi, a or b ? Answer by quoting the chosen item's label. a
(a: 7.53, b: 7.88)

###

Reported melting point by item:

NS(=O)(=O)c1ccc(C(=O)N2CCC(C(=O)NNC(=S)Nc3ccc(Cl)c(Cl)c3)CC2)cc1 : 232 to 233 °C

Value of melting point reported for the compound NS(=O)(=O)c1ccc(C(=O)N2CCC(C(=O)NNC(=S)NC3CCCCC3)CC2)cc1 is 183 to 184 °C

Field melting point (entry NS(=O)(=O)c1ccc(C(=O)N2CCC(C(=O)NNC(=S)Nc3c(F)cccc3F)CC2)cc1 ) reads 242 to 243 °C

get_value(item= NS(=O)(=O)c1ccc(C(=O)N2CCC(C(=O)NNC(=O)Nc3ccc(Cl)cc3)CC2)cc1 , readout=melting point) returns 209 to 210 °C

Form field melting point, entry NS(=O)(=O)c1ccc(C(=O)N2CCC(C(=O)NNC(=S)Nc3cccc(Cl)c3)CC2)cc1 : 226 to 227 °C

###

target: hCA IX (Homo sapiens, UniProt Q16790); assay: stopped flow CO2 hydrase assay, hCA IX inhibition
READOUT: Ki (nM)

(I) NS(=O)(=O)c1ccc(C(=O)N2CCC(C(=O)NNC(=S)Nc3cccc(Cl)c3)CC2)cc1
(II) NS(=O)(=O)c1ccc(C(=O)N2CCC(C(=O)NNC(=S)Nc3ccccc3)CC2)cc1
(III) COc1ccc(CNC(=O)NNC(=O)C2CCN(C(=O)c3ccc(S(N)(=O)=O)cc3)CC2)cc1
(IV) NS(=O)(=O)c1ccc(C(=O)N2CCC(C(=O)NNC(=S)Nc3ccc(Cl)c(Cl)c3)CC2)cc1
Parameters: sort_field (Ki), sort_dir (desc). Give me the labels in the order the question wants. III, II, I, IV
(III: 45.3 nM, II: 28.8 nM, I: 18 nM, IV: 4.7 nM)

(1) Cc1cccc(C)c1NC(=O)NNC(=O)C1CCN(C(=O)c2ccc(S(N)(=O)=O)cc2)CC1
(2) COc1cc(NC(=S)NNC(=O)C2CCN(C(=O)c3ccc(S(N)(=O)=O)cc3)CC2)cc(OC)c1OC
(3) NS(=O)(=O)c1ccc(C(=O)N2CCC(C(=O)NNC(=O)Nc3ccc(Cl)cc3)CC2)cc1
Ascending sort, Ki. Enter labels, ranked according to the request. 2, 1, 3
(2: 16.6 nM, 1: 25.1 nM, 3: 93.7 nM)

(a) COc1ccccc1NC(=O)NNC(=O)C1CCN(C(=O)c2ccc(S(N)(=O)=O)cc2)CC1
(b) COc1ccc(NC(=S)NNC(=O)C2CCN(C(=O)c3ccc(S(N)(=O)=O)cc3)CC2)cc1
Which shows the larger Ki value: a or b ? Choose, then provide that item's label. b
(b: 22.1 nM, a: 8.6 nM)

###

target: hCA IX (Homo sapiens, UniProt Q16790); assay: stopped flow CO2 hydrase assay, hCA IX inhibition
pKi: −log10 of the molar value.
READOUT: pKi

As a guide, the following entries are already answered.
NS(=O)(=O)c1ccc(C(=O)N2CCC(C(=O)NNC(=O)NCc3ccccc3)CC2)cc1 [Compound 5t] : 7.40
Cc1cc(C)cc(NC(=O)NNC(=O)C2CCN(C(=O)c3ccc(S(N)(=O)=O)cc3)CC2)c1 [Compound 5n] : 7.46
NS(=O)(=O)c1ccc(C(=O)N2CCC(C(=O)NNC(=O)Nc3ccccc3Cl)CC2)cc1 [Compound 5b] : 7.60
COc1ccc(CNC(=S)NNC(=O)C2CCN(C(=O)c3ccc(S(N)(=O)=O)cc3)CC2)cc1 [Compound 6w] : 7.50
NS(=O)(=O)c1ccc(C(=O)N2CCC(C(=O)NNC(=S)Nc3ccc(Cl)cc3Cl)CC2)cc1 [Compound 6h] : 7.74

(1) NS(=O)(=O)c1ccc(C(=O)N2CCC(C(=O)NNC(=S)NCc3ccccc3)CC2)cc1 [Compound 6v]
(2) NS(=O)(=O)c1ccc(C(=O)N2CCC(C(=O)NNC(=O)Nc3cccc(Cl)c3)CC2)cc1 [Compound 5c]
(3) NS(=O)(=O)c1ccc(C(=O)N2CCC(C(=O)NNC(=S)Nc3c(F)cccc3F)CC2)cc1 [Compound 6q]
# desc sort on pKi across 3 compounds Please respond with the labels ordered as the question requires. 3, 1, 2
(3: 8.23, 1: 7.62, 2: 7.42)

###

target: hCA II (Homo sapiens, UniProt P00918); assay: stopped flow CO2 hydrase assay, hCA II inhibition
pKi: −log10 of the molar value.
READOUT: pKi

NS(=O)(=O)c1ccc(C(=O)N2CCC(C(=O)NNC(=S)Nc3ccc([N+](=O)[O-])cc3)CC2)cc1 : 7.22

(A) COc1ccc(NC(=O)NNC(=O)C2CCN(C(=O)c3ccc(S(N)(=O)=O)cc3)CC2)c(OC)c1
(B) COc1cc(NC(=S)NNC(=O)C2CCN(C(=O)c3ccc(S(N)(=O)=O)cc3)CC2)cc(OC)c1OC
(C) Cc1cccc(NC(=O)NNC(=O)C2CCN(C(=O)c3ccc(S(N)(=O)=O)cc3)CC2)c1
# rank_down: sort by pKi, max first Reply: labels, ordered per the request. A, B, C
(A: 7.70, B: 7.43, C: 6.94)

(I) NS(=O)(=O)c1ccc(C(=O)N2CCC(C(=O)NNC(=O)Nc3cccc(F)c3)CC2)cc1
(II) NS(=O)(=O)c1ccc(C(=O)N2CCC(C(=O)NNC(=S)Nc3ccc(Cl)cc3Cl)CC2)cc1
# return whichever of I and II has the smaller pKi Answer = label. II

###

molecular target: hCA XII (Homo sapiens, UniProt O43570); assay: stopped flow CO2 hydrase assay, hCA XII inhibition
Sequence (O43570 25-354): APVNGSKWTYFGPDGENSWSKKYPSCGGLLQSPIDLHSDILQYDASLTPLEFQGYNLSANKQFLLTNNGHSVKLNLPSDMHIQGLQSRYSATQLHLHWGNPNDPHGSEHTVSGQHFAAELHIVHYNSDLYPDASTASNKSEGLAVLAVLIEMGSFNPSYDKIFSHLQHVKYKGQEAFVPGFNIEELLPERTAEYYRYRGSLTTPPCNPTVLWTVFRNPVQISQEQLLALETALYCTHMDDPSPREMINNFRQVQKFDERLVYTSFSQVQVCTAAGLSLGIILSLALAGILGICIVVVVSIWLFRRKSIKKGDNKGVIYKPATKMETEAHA
READOUT: Ki (nM)

(A) COc1ccc(CNC(=O)NNC(=O)C2CCN(C(=O)c3ccc(S(N)(=O)=O)cc3)CC2)cc1
(B) Cc1ccc(NC(=O)NNC(=O)C2CCN(C(=O)c3ccc(S(N)(=O)=O)cc3)CC2)cc1
(C) COc1ccccc1NC(=O)NNC(=O)C1CCN(C(=O)c2ccc(S(N)(=O)=O)cc2)CC1
(D) NS(=O)(=O)c1ccc(C(=O)N2CCC(C(=O)NNC(=S)Nc3c(Cl)cccc3Cl)CC2)cc1
Order the above molecules by increasing Ki. Dear reader, please state the labels in the requested order. A, D, C, B
(A: 6.4 nM, D: 10 nM, C: 19.6 nM, B: 36.7 nM)

(A) COc1ccc(NC(=O)NNC(=O)C2CCN(C(=O)c3ccc(S(N)(=O)=O)cc3)CC2)cc1
(B) NS(=O)(=O)c1ccc(C(=O)N2CCC(C(=O)NNC(=O)NCc3ccccc3)CC2)cc1
Could you kindly indicate whether A or B has the higher Ki value? Answer = label. B

The reported measurements were obtained from paper PMC9457746.
